# System: blackgrass
# test.summary: Test A preemergence
# Format: in vivo, Alopecurus myosuroides
# assay.context: 500 g ai/ha, 0 to 100 scale (0 no effect, 100 complete control), 10 days
readout.name: Plant response rating, Blackgrass
Answer with the value's number alone.

CCc1ncn(-c2ccc(C)c(C(=O)N3C[C@H](C)Oc4c(C)cccc43)c2)n1; 80
C[C@H]1CN(C(=O)c2cc(Cl)cc(-n3cncn3)c2)c2cccc(Cl)c2O1; 60
O=C(c1cccc(-n2cncn2)c1)N1CC(C(F)(F)F)Oc2c(Cl)cccc21 (centres unmarked); 60
COc1ccc(-n2cnc(C)n2)cc1C(=O)N1C[C@H](C)Oc2c(Cl)cccc21; 90
C[C@H]1CN(C(=O)c2cc(-n3cncn3)ccc2C(F)(F)F)c2cccc(Cl)c2O1; 80

Ask: Look up Plant response rating, Blackgrass: CCc1ccc(-n2cnc(C3CCC3)n2)cc1C(=O)N1C[C@H](C)Oc2c(Cl)cccc21
Reply: 40

Ask: Look up Plant response rating, Blackgrass: CCCCc1ncn(-c2cccc(C(=O)N3C[C@H](C)Oc4c(C)cccc43)c2)n1
Reply: 30

Ask: Look up Plant response rating, Blackgrass: Cc1cc(F)cc2c1OC(C)CN2C(=O)c1cccc(-n2cncn2)c1 (centres unmarked)
Reply: 80

====

# Tested on: soybean
# test.summary: Test A postemergence
# Assay type: in vivo, Glycine max
# assay.context: 125 g ai/ha, postemergence, 10 days; 0 to 100 scale, 0 no effect, 100 complete control
readout.name: Soybean plant response rating

Example compounds with recorded Soybean plant response rating:
COc1cc(C(=O)N2C[C@H](C)Oc3c(Cl)cccc32)cc(-n2cncn2)c1 [Compound 138]; 100
C[C@H]1CN(C(=O)c2cccc(-n3cnc(Br)n3)c2)c2cccc(Cl)c2O1 [Compound 85]; 100
COCCc1ncn(-c2cccc(C(=O)N3C[C@H](C)Oc4c(C)cccc43)c2)n1 [Compound 113]; 100
Cc1cccc2c1O[C@@H](C)CN2C(=O)c1cccc(-n2cnn(C(C)C)c2=O)c1 [Compound 118]; 40
CC(C)c1ncn(-c2ccc(OCC(F)(F)F)c(C(=O)N3C[C@H](C)Oc4c(Cl)cccc43)c2)n1 [Compound 141]; 100
Cc1nc(C)n(-c2cccc(C(=O)N3C[C@H](C)Oc4c(Cl)cccc43)c2)n1 [Compound 142]; 40
COc1ccc(-n2cnc(C)n2)cc1C(=O)N1C[C@H](C)Oc2c(Cl)cccc21 [Compound 89]; 100
CC(C)c1ncn(-c2ccc(O)c(C(=O)N3C[C@H](C)Oc4c(Cl)cccc43)c2)n1 [Compound 105]; 70

Ask: Look up Soybean plant response rating: C[C@H]1CN(C(=O)c2cc(Br)cc(-n3cncn3)c2)c2cccc(Cl)c2O1 [Compound 114]
Reply: 60

====

# System: corn
# test.summary: Test C preemergence
# Format: in vivo, Zea mays
# assay.context: 500 g ai/ha, preemergence; 0 to 100 scale (0 no effect, 100 complete control)
Binary label based on Corn plant response rating with cut-off 10: below gives 1 (yes), not below gives 0 (no).

The examples below pair each entry with its known result.
COc1ccc(-n2cnc(C(C)(C)O)n2)cc1C(=O)N1C[C@H](C)Oc2c(C)cccc21; 0 (no)
COc1ccc(-n2cncn2)cc1C(=O)N1C[C@H](C)Oc2c(F)cccc21; 0 (no)
Cc1ncnn1-c1cc(C(=O)N2CC(C(F)(F)F)Oc3c(Cl)cccc32)ccn1 (racemic); 1 (yes)
Cc1cccc2c1OC(C(F)(F)F)CN2C(=O)c1cccc(-n2cnc(C(C)C)n2)c1 (single isomer, unassigned) [Compound 303]; 0 (no)

Then there is this compound:
Ask: Hi there! Is Corn plant response rating for Cc1ccc(-n2cnc(C(C)C)n2)cc1C(=O)N1CC(C(F)(F)F)Oc2c(Cl)cccc21 (stereo not shown) [Compound 354] below 10, do you know?
Reply: 0 (no)

====

# Tested on: barnyardgrass
# test.summary: Test C preemergence
# Format: in vivo, Echinochloa crusgalli
# assay.context: Test C, preemergence, 125 g ai/ha; 0 to 100 scale (0 no effect, 100 complete control)
readout.name: Barnyardgrass plant response rating
Answer with the value's number alone.

Example compounds with recorded Barnyardgrass plant response rating:
Cc1ccc(-n2cnc(C3CCC3)n2)cc1C(=O)N1CC(C(F)(F)F)Oc2c(Cl)cccc21 (single isomer, unassigned); 80
CC(C)=C(C)c1ncn(-c2cccc(C(=O)N3C[C@H](C)Oc4c(C)cccc43)c2)n1; 60
COC[C@H]1CN(C(=O)c2cc(-n3cnc(C4CC4)n3)ccc2OC)c2cccc(Cl)c2O1; 50

Ask: Look up Barnyardgrass plant response rating: COc1cc(C(=O)N2C[C@H](C)Oc3c(Cl)cccc32)cc(-n2cnc(C3CC3)n2)c1
Reply: 40

Ask: Look up Barnyardgrass plant response rating: CSCc1ncn(-c2ccc(C)c(C(=O)N3C[C@H](C)Oc4c(Cl)cccc43)c2)n1
Reply: 20

Ask: Look up Barnyardgrass plant response rating: COc1c(C)cc(-n2cnc(C(C)C)n2)cc1C(=O)N1C[C@H](C)Oc2c(Cl)cccc21
Reply: 70

Ask: Look up Barnyardgrass plant response rating: Cc1cccc2c1O[C@@H](C)CN2C(=O)c1cccc(-n2cnc([N+](=O)[O-])n2)c1
Reply: 0

====

# Tested on: foxtail, giant
# test.summary: Test A postemergence
# Format: in vivo, Setaria faberi
# assay.context: 125 g ai/ha, postemergence, 10 days, visual injury, 0 to 100 scale (0 no effect, 100 complete control)
Measured Plant response rating, Foxtail, Giant, listed per entry for reference.
Answer with the value's number alone.

Example compounds with recorded Plant response rating, Foxtail, Giant:
CC1CN(C(=O)c2cccc(-n3cncn3)c2)c2cc(F)cc(F)c2O1 (stereo not drawn) [Compound 45]; 20
Cc1cc(F)cc2c1OC(C)CN2C(=O)c1cccc(-n2cncn2)c1 (stereo not drawn) [Compound 44]; 40
Cc1cccc2c1O[C@@H](C)CN2C(=O)c1cccc(-n2cnc(C(C)(C)C)n2)c1 [Compound 65]; 10

Ask: Look up Plant response rating, Foxtail, Giant: Cc1cccc2c1O[C@@H](C)CN2C(=O)c1cc(-n2cncn2)ccc1F [Compound 50]
Reply: 70

Ask: Look up Plant response rating, Foxtail, Giant: Cc1ccc(-n2cnc(Br)n2)cc1C(=O)N1C[C@H](C)Oc2c(Cl)cccc21 [Compound 62]
Reply: 90

====

# Tested on: kochia
# test.summary: Test A preemergence
# Format: in vivo, Bassia scoparia
# assay.context: 1000 g ai/ha, 0 to 100 scale (0 no effect, 100 complete control), 10 days
Measured Plant response rating, Kochia, listed per entry for reference.

CCCC1CN(C(=O)c2ccnc(-n3cncn3)c2)c2cccc(Cl)c2O1 (stereo not drawn); 0
CC1CN(C(=O)c2ccnc(-n3cncn3)c2)c2ccccc2O1 (stereo not drawn); 60

Ask: Look up Plant response rating, Kochia: C[C@H]1CN(C(=O)c2cccc(-n3cnnc3)c2)c2cccc(Cl)c2O1
Reply: 40

Ask: Look up Plant response rating, Kochia: Cc1csc(-c2cccc(C(=O)N3C[C@H](C)Oc4c(Cl)cccc43)c2)n1
Reply: 0

====

# Tested on: corn
# test.summary: Test A preemergence
# Assay type: in vivo, Zea mays
# assay.context: 500 g ai/ha, 0 to 100 scale (0 no effect, 100 complete control), 10 days
Measured Plant response rating, Corn, listed per entry for reference.
Answer with the value's number alone.

C[C@H]1CN(C(=O)c2cc(-n3cncn3)ccc2C(F)(F)F)c2cccc(Cl)c2O1; 20
Cc1ccc(-n2cnc(C(C)(C)C)n2)cc1C(=O)N1C[C@H](C)Oc2c(C)cccc21; 40
CC(C)c1ncn(-c2cccc(C(=O)N3C[C@H](C)Oc4c(Cl)cccc43)c2)n1; 30

Ask: Look up Plant response rating, Corn: O=C(c1cccc(-n2cncn2)c1)N1CC(C(F)(F)F)Oc2c(Cl)cccc21 (centres unmarked)
Reply: 20

Ask: Look up Plant response rating, Corn: Cc1cccc2c1O[C@@H](C)CN2C(=O)c1cccc(-n2cnc(C(C)C)n2)c1
Reply: 30

Ask: Look up Plant response rating, Corn: CC1CN(C(=O)c2cc(-n3cncn3)ccc2F)c2cccc(Cl)c2O1 (centres unmarked)
Reply: 30

Ask: Look up Plant response rating, Corn: C[C@H]1CN(C(=O)c2cccc(-n3cncn3)c2)c2cccc(C(F)(F)F)c2O1
Reply: 0

Ask: Look up Plant response rating, Corn: CCc1ncn(-c2ccc(C)c(C(=O)N3C[C@H](C)Oc4c(Cl)cccc43)c2)n1
Reply: 50

====

Measured Plant response rating, Ryegrass, Italian, listed per entry for reference.
# Test system: ryegrass, Italian
# test.summary: Test C postemergence
# Type: in vivo, Lolium multiflorum
# assay.context: Postemergence, 125 g ai/ha; 0 to 100 scale (0 no effect, 100 complete control), 10 days
Answer with the value's number alone.

Ask: Look up Plant response rating, Ryegrass, Italian: COc1ncn(-c2cccc(C(=O)N3C[C@H](C)Oc4c(Cl)cccc43)c2)n1 [Compound 310]
Reply: 30

Ask: Look up Plant response rating, Ryegrass, Italian: CCOCC1CN(C(=O)c2cc(-n3cnc(C(C)(C)C)n3)ccc2OC)c2cccc(Cl)c2O1 (stereo not drawn) [Compound 379]
Reply: 30

Ask: Look up Plant response rating, Ryegrass, Italian: CCOC[C@H]1CN(C(=O)c2cc(-n3cnc(C(C)C)n3)ccc2C)c2cccc(Cl)c2O1 [Compound 340]
Reply: 60
